Recorded Ki by entry
Measured On: EP4 receptors (Homo sapiens, UniProt P35408)
Construct: expressed in transfected cells; host or cells: HEK-293
Sequence (P35408 whole entry): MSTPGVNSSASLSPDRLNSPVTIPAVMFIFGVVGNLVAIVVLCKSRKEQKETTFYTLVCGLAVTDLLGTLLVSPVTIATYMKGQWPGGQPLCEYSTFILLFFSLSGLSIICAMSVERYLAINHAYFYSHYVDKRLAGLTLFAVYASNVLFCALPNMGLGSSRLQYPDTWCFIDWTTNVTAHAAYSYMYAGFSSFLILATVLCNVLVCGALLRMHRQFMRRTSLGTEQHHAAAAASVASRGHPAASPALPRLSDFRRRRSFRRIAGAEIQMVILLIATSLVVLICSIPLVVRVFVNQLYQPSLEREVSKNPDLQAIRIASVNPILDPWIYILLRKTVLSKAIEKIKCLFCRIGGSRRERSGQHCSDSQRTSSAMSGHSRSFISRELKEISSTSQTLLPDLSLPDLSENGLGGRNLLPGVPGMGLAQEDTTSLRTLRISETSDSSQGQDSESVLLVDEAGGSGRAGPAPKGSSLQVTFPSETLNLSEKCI
Assay Details: Radioligand binding ([3H]PGE2), EP4
Condition Parameters: unit inferred; read-out: EP4 data KI
Endpoint: Ki

1) CC(C)(C)c1ccc(N2C(=O)CC[C@@H]2COCCCCC(=O)O)cc1	> 10 µM
2) CCCCCC(O)c1ccc(N2C(=O)CC[C@@H]2CCCc2ccc(C(=O)O)s2)cc1 (single isomer, unassigned) [drawing 150]	> 10 µM
3) CCCCCC(O)c1ccc(N2C(=O)CC[C@@H]2CCCc2ccc(C(=O)O)s2)cc1 (some centres unmarked) [drawing 145]	> 10 µM
4) CCCCCC(O)c1ccc(N2C(=O)CC[C@@H]2COCc2ccc(C(=O)O)s2)cc1 (some centres unmarked)	> 10 µM
5) CCCCCC(O)c1ccc(N2C(=O)CC[C@@H]2COCc2cccc(C(=O)O)c2)cc1 (some centres unmarked)	> 10 µM
6) CC(C)(C)c1ccc(N2C(=O)CC[C@@H]2COCc2ccc(C(=O)O)s2)cc1	> 10 µM
7) CC(C)(C)c1ccc(N2C(=O)CC[C@@H]2CCCCCCC(=O)O)cc1	> 10 µM
8) CCCCCC(O)c1ccc(N2C(=O)CC[C@@H]2COCc2ccc(C(=O)O)s2)cc1 (single isomer, unassigned) [drawing 177]	6.03 µM
